These entries and their values trace back to paper PMC5511257.

Target: T1, Human carboxypeptidase A1 (hCPA1) (human, UniProt P15085 111-419)
T1 construct: also called human CPA1
T1 sequence (looked up): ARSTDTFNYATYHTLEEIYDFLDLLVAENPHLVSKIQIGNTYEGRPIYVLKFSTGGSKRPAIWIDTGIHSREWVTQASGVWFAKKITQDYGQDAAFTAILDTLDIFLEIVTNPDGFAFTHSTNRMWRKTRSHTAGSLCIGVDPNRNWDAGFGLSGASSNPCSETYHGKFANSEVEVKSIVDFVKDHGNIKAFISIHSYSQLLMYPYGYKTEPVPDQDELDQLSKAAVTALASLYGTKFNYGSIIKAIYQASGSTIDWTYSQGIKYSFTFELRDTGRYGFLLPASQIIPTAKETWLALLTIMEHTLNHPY
Test: enzyme inhibition kinetics (tight-binding inhibitor, Morrison equation); CPAs: inhibition of hydrolysis of N-(4-methoxyphenylazoformyl)-Phe-OH (0.1 mM) at 355 nm; 20 mM Tris-HCl pH 7.5, 1% v/v DMSO, 0.05% w/v Brij-35, 0.5 M NaCl; 37 °C; enzyme constant (7.5 nM hCPA1, 6.0 nM bCPA1), increasing amounts of inhibitor
Details: both partners purified
Bridges are numbered along the chain shown (N, C = ends). Where no end group is shown, it is not given here.
Reported pKi by item:
Notebook: values listed as pKi are -log10 of the concentration (mol/L).

Nerita versicolor carboxypeptidase inhibitor (NvCI), native (natural protein, UniProt P86912 1-53, looked up, disulfide 15-51, 9-23, 27-38, comprises 53 residues, C-terminal tail Cys51-Tyr52-Ala53; also called native NvCI; 3S-S native form; source: Pichia pastoris, secreted into the extracellular medium, purified (ion exchange, size exclusion); repurified by RP-HPLC) FHVPDDRPCINPGRCPLVPDATCTFVCKAADNDFGYECQHVWTFEGQRVGCYA :: 11.93

Pending binder:
pKi recorded for this binder, des(15–51) NvCI folding/unfolding intermediate (natural protein, Nerita versicolor, UniProt P86912 1-53, looked up, disulfide 9-23, 27-38; cysteine pairing not given here, differs only in the missing Cys15-Cys51 disulfide; also called intermediate IIb; fraction IIb) FHVPDDRPCINPGRCPLVPDATCTFVCKAADNDFGYECQHVWTFEGQRVGCYA , is 9.00
